Assay: soluble on expression in E. coli; label from the status in PepcDB or PDB records
PARAMETER: soluble on expression in E. coli

MGSDKIHHHHHHMVSMIKTAQGYSSELTRDQSELTQFWSQVQQESLAIEPGITLAYGFIRHEDNRRAIVISNGRVESYLKYQELIYDCYQQGFSVYALDHRGQGLSSRLTTNPHQGHVEHFSDYVDDFKVFIERVVKPERHKELFLVGHSMGGAIATHYIHQDPTTFNAAVLSAPMYGIILPLPTVVIKQLATKMINTQPVIGSHLVATNYIIGGRDYQAISFKLNQLTHSQVRYQHYRDLYQQQPQCQLGSPTNQWLAEAIDAAKASIDMARGSPIPLLILQAGKDKIVCNQAQNKALAGLCQRIIIEGAFHEVFIETDKLRDKALKALFDFINQHSEII	not soluble
ATQFTASILSLYNSEQMLQKTDPMSVISSAMVAATLDLPIDKNLGYAWIVPYGGKAQFQLGYKGYIQLALRTGQYKSINCIPIHEGELQKWNPLTEEIEIDFEKRESDAVIGYAAYFELINGFRKTVYWTKAQVEKHKKKFSKSDFGWKNDWDAMALKTVLKAVLSKWGILSVEMQKAVIEEDETRERIDITNEADSSEIIDSE	not soluble
RGDSLNYRLLRPEVEKTGLQYPLVLFLHGAGERGSDNEKQLTHGGQMFLNPVNREKYPAFVLVPQCPEKDYWAYTSRPSSFIPSEMPVGQEITPVLRAVKELLDTYLDLPQVDRNRIYVVGLSMGGMATYDLAVRFPDTFAAAVPICGTVNPVRLADAANVRFRIFHGDADNVVPVEGSREAYKALKNLGAEVEYIEFPGCNHGSWNPAFNYPGFMEWLFAQRK	not soluble

====

Assay: soluble on expression in E. coli; label from the status in PepcDB or PDB records
PARAMETER: soluble on expression in E. coli

Below: 4 sequences and their reported soluble on expression in E. coli.
MKQIAFIGLGHMGAPMATNLLKAGYLLNVFDLVQSAVDGLVAAGASAARSARDAVQGADVVISMLPASQHVEGLYLDDDGLLAHIAPGTLVLECSTIAPTSARKIHAAARERGLAMLDAPVSGGTAGAAAGTLTFMVGGDAEALEKARPLFEAMGRNIFHAGPDGAGQVAKVCNNQLLAVLMIGTAEAMALGVANGLEAKVLAEIMRRSSGGNWALEVYNPWPGVMENAPASRDYSGGFMAQLMAKDLGLAQEAAQASASSTPMGSLALSLYRLLLKQGYAERDFSVVQKLFDPTQGQ	soluble
MKKDIILSGVGGQGILSIATVIGKAALKEGLYMKQAEVHGMSQRGGDVQSNLRISDKPIASDLIPSGKCDLIISLEPMEGLRYLPYLSPEGWLVTNETPFVNIPNYPEEDKVMAEINKLPHKIVLNVDKVAKEVGSARVANIVLLGATIPFLGIDYEKVQDSIREIFLRKGEAIVEMNLKALAAGKEIAEKLMQ	not soluble
MGSDKIHHHHHHVSQLTPWQHYQQDLTRDDFSHDAAQEQAVKSLQRVYDELIVAAKPASSVSKLFSAIGIKSTPTPVKGLYLWGGVGRGKTYLMDTFFDALPTDRKLRAHFHRFMHQIHNDLGELKGVQDPLLTIAKKMASQYQIICFDEFFVSDITDAMLLGTLFQALFKEGVALVATSNIIPDELYKNGLQRVRFLPAIALINQHCEILNVDSGIDYRLRTLEQAEIYHYPLDEQADINLLHYFDQLAPESEKLTAPIDVDGRAIRIRQQSQGVLLINFRDLCDGPRSQRDYMEMACLYHTVLVSGLEQMGSQQTGDDIARRFLAMVDEFYERNVKLIISAQVELEHIYTDGQLNFEFRRCRSRLIEMQSREYLALEHLP	not soluble
MGHHHHHHHHHHSSGHIEGRHMKLEFMNLLSENKKENYYYCGENKVALVTGAGRGIGREIAKMLAKSVSHVICISRTQKSCDSVVDEIKSFGYESSGYAGDVSKKEEISEVINKILTEHKNVDILVNNAGITRDNLFLRMKNDEWEDVLRTNLNSLFYITQPISKRMINNRYGRIINISSIVGLTGNVGQANYSSSKAGVIGFTKSLAKELASRNITVNAIAPGFISSDMTDKISEQIKKNIISNIPAGRMGTPEEVANLACFLSSDKSGYINGRVFVIDGGLSP	soluble

# context switch: different sequence, same soluble on expression in E. coli
Could you share which soluble on expression in E. coli value was measured for MGSDKIHHHHHHMLELRHLRTLIALRDAGSLVEAAERVHLTQSALSHQIKDLEERLGSPLFLRKTRPVTFTRAGERLLALAEQILPQIRMAERDLARLAGHEQGRLHMAIECHSCFQWLMPTIDHFRDHWPEVEVDIPSGYSFDALPSLARESLDLVITADPQPLAGIHYEPLFRYEGLLAVGKQHPLARRDWVTPEELARETLITYPVEHTRLDVFTQFLTPAGFTPAEVRTAELTIMMMQLVASGRGVCALPNWALTEYLERGYVRALHLGEQGVWSTLFAAIREESRDAPWMEDFLRTARETSFAVLAGIKPA ?
not soluble

====

Experiment: soluble on expression in E. coli; label from the status in PepcDB or PDB records
PARAMETER: soluble on expression in E. coli

Some solved entries appear below for comparison.
MAHHHHHHMSVTASAAAAAAAAAASPRPPSSALYTERLFYAVLKQGNPSEARVEALAALALRHLPKSAETWAALRKALMEQSDLDGAPNRTLWYVLDALIKHAPHVFVPLVAPRLLEYTIQQLPWELAGHRGQTLLWFEALVLSWEKVLPQRLYSAVRQHAVQSRSGAELHDLLEAAENSVDDGTSASPADLQQLRDAWDAVQYMGEQEAGKSVFHARLIAAAVVVADEDGNSSLSPSPPVSGLYATPTGHNGRTAGAGTSGADIANTQQQQQQQEEDEYTPDFIEGAKPRELPKLDLPKLKRRREGRRRPREEDLGM	soluble
MSRQAKDDFLRHYTVSDPRTHPKGYTEYKVTAQFISKKDPEDVKEVVVWKRYSDFRKLHGDLAYTHRNLFRRLEEFPAFPRAQVFGRFEASVIEERRKGAEDLLRFTVHIPALNNSPQLKEFFRGGEVTRPLEVSRDLHILPPPLIPTPPPDDPRLSQLLPAERRGLEELEVPVDPPPSSPAQEALDLLFNCESTEEASGSPARGPLTEAELALFDPFSKEEGAAPSPTHVAELATMEVESARLDQEPWEPGGQEEEEDGEGGPTPAYLSQATELITQALRDEKAGAYAAALQGYRDGVHVLLQGVPSDPLPARQEGVKKKAAEYLKRAEEILRLHLSQLPP	soluble
MSRLEIYSPEGLRLDGRRWNELRRFESSINTHPHAADGSSYMEQGNNKIITLVKGPKEPRLKSQMDTSKALLNVSVNINKFSKFERSKSSHKNERRVLEIQTSLVRMFEKNVMLNIYPRTVIDIEIHVLEQDGGIMGSLINGITLALIDAGISMFDYISGISVGLYDTTPLLDTNSLEENAMSTVTLGVVGKSEKLSLLLVEDKIPLDRLENVLAIGIAGAHRVRDLMDEELRKHAQKRVSNASAR	soluble
MGSDKIHHHHHHMTEADLFVSQFLTEKLTALFPNVPVLSEENCHISFEERKNWKEYWLIDPLDGTQQFINRTDQFSVLITLVRKNKPVLSVIHAPILSTTYYAMCDFGTFKKQLDQVKKLTKNTTNFDRPLRIAVGATTSQEKVRSILPKDFPCEFVVVGSSSLKSGLVAEGAVDCYVRLGQTGEWDTAGAEVLLGETHGAIFDSHFEPLTYNQRETLINPHFVMVGDQSFDWRSIFQFN	not soluble

Which value of soluble on expression in E. coli has been reported for MGSDKIHHHHHHMAYLDNIAVFVRVVELGNLSAAGRDMRISPAVASNRIKELEKHLGVRLFNRTTRQLMPTEHGTVFYSGAKQVLEAITEAEAAVSALSGQPRGTIRVTAPLGLGRRLVASGIPDFHDKYPDIEVRLRLSDHNVDIMKEGIDVAFRLGIIEDSSLRMRGIMECERVLVAAPKYLEARGEPAEPQELIGKKHDCLMLRYSGAREYVWTLQTPTGPQKFEVHGPYDTDDGDVLTGWALSGRGIINKPRFEVEPFIRDRRLQVILANTPPTPVQFAAVYPHKKLQDPKVRLLLDFMAERCQRLIKDILAGK in the records?
not soluble

====

Test: soluble on expression in E. coli; label from the status in PepcDB or PDB records
PARAMETER: soluble on expression in E. coli

Here's what some known entries look like.
MGHHHHHHSHMAFCAILLVPSLCRMPSLPTSPWAFPVHWAGFMFKPLDWQGNDFFPPQDEVLAPCLGIKTPLKHEPCASLPFSVLFQSSASQSLLGTMGSLSPHLCGHTMCPVNPELPLSFQADHRSAQPDACSPLCHPSSLLPSFHTASLPFSIHAHHSPLPCDLDPPLYLAETVSLLEEWGPPSSCPMQCKLTSHPARLTHLPPCLWGFAVALKPSWAGLAPSLLPPPRMSLCRPLSFLRHQCPWLPWQAHQGLVPWSPSMVAAACIVSPSGHCRCQPFIPHVFLGHGGLTSVSGECG	not soluble
MKALARFGKAFGGYKMIDVPQPMCGPEDVVIEIKAAAICGADMKHYNVDSGSDEFNSIRGHEFAGCIAQVGEKVKDWKVGQRVVSDNSGHVCGVCPACEQGDFLCCTEKVNLGLDNNTWGGGFSKYCLVPGEILKIHRHALWEIPDGVDYEDAAVLDPICNAYKSIAQQSKFLPGQDVVVIGTGPLGLFSVQMARIMGAVNIVVVGLQEDVAVRFPVAKELGATAVVNGSTEDVVARCQQICGKDNLGLVIECSGANIALKQAIEMLRPNGEVVRVGMGFKPLDFSINDITAWNKSIIGHMAYDSTSWRNAIRLLASGAIKVKPMITHRIGLSQWREGFDAMVDKTAIKVIMTYDFDE	soluble
MSLTMVQVTLEVNGRQVAHEAPPRMHLGDFLRDQARLTGTHLGCEHGVCGACTVLVDGQPVRSCITYAVACEGRQVTTIEGYDGDPVMARLRAAFTKYHALQCGYCTPGMLTTSRDIVLRLPDADEARVRVELSGNLCRCTGYMGIVGAVMSVLRDLREQPDAAVQALRAAAADGRLPAPRGEQPIAFQPFTPSAPSGKGNQIVDAFTVPFPAAEVWAFMVDLPAVAACLPGAVIEETDGQRVKGKIAIKFGPMAAAFNGAARLERDEAAMRAVFRGAGQDSLSQSRATGDIAYQVEAVSENETRVKVDLQYALQGPLAQFSRSGLVQDFVRRMIADFGKNVTARLREGHHHHHH	soluble
GHMDVGERSSDQGTTVLTEAQRIDWMRLIRAENVGPRTFRSLINHFGSARAALERLPELARRGGAARAGRIPSEDEARREIEAGRRIGVELVAPGETGYPTRLATIDDAPPLLGVHALPEALAVMARPMIAIVGSRNASGAGLKFAGQLAADLGAAGFVVISGLARGIDQAAHRASLSSGTVAVLAGGHDKIYPAEHEDLLLDIIQTRGAAISEMPLGHVPRGKDFPRRNRLISGASVGVAVIEAAYRSGSLITARRAADQGREVFAVPGSPLDPRAAGTNDLIKQGATLITSASDIVEAVASILERPIELPGREPEHAPPEGEPDTGDRTRILALLGPSPVGIDDLIRLSGISPAVVRTILLELELAGRLERHGGSLVSLS	soluble
MAEPQPASSGLTDETAFSCCSDPDPSTKDFLLQQTMLRIKDPKKSLDFYTRVLGLTLLQKLDFPAMKFSLYFLAYEDKNDIPKDKSEKTAWTFSRKATLELTHNWGTEDDETQSYHNGNSDPRGFGHIGIAVPDVYSACKRFEELGVKFVKKPDDGKMKGLAFIQDPDGYWIEILNPNKIATII	soluble
MKIAAIYTQSVGPLPDGEIRFENDWSGEIESNVLITGPNGCGKSTLLRAISLLWRAFGHWLGTGTRLNIKDESYTWFYRWDASCAMILDSFSPKSEDQIGLFLGSEAFLVQLKEKYPQVYWLGETVSRTKGTTPETTVFTSSEHFFLPYKNWWSHWSSQYQRLVLKGPSVDMPNLVYLDAEARRWVRPQKDIGSLSPDDSTQAWLATYEVNDNWKGQLESSLFNMKATMPGEYPEMIATLNQFFSGKRIEAEIHPGQRQRVLLDSGNDHSLDALSSGEHQVLIMLFTVQRWLQPGGVVLIDEPDLHLHPSLISPLLASIENIVARKNGQLVMTSHATDIWQRYDNMGLRIDLTDGKDAENGQRLEHHHHHH	soluble

Hey, can you go through the list below and give me soluble on expression in E. coli for every item?
1. MGSDKIHHHHHHMSKTKEQVVELAQKHGITIQEGSLILNESGLDFQVVFALDVNGKRWVLRLPRREDVVPSTAKEKKTLELIAPHLSVQVPNWEVYSVEMIAYKQLKGVPAATIDHGKKAYVWEMDHTNVSDRFIDTLASGMASLHQIKQDEARRAGVPAEQATEARERMSVRMEKVKSEFGVSEPLWARWQKWLHHDALWPAETGLVHGDLHAGHILIGEQTEVTGFIDWTEAQVTDLSEDFVPHYRIFGEAALNRLIAAYEEAGGYVWPSMKEHVIEREAAFPVAIAEFALKSGIGEYKRMAKEVLGVAE
2. MDISTNKANYKPAVSQAFDGQETQDGTNILILGSDQRVTQGSTDARTDTIMVVNVGNHAKKIKMVSFMRDTLINIPGYSYNDNSYDLKLNSAFNLGEQEDHHGAEYVRRALKHNFDIDIKYYVMVDFETFAEAIDTLFPNGVKIDAKFATVGGVAVDSVEVPDDLRMKNGVVPNQTIEVGEQRMDGRTLLNYARFRKDDEGDFGRTVRQQQVMSAVMSQIKDPTKLFTGSAAIGKIYALTSTNVSFPFVVKNGVSVLGSGKNGVEHVTIPENGDWVDEYDMYGGQALYIDFDKYQKTLAKLGLRLEHHHHHH
3. MAHHHHHHMLRHCTAHRRYRTAWRELLHPLPVRARKMEWLKRDAVEENEEILRRPYYTIKSYALPPAVGRQESIHNSNNIRGGMHSSHSLDLIMRQPRRVKTPEQLQALRDRLRFIGVTGPMPQATSVSTKSYADTYGSRLRPRYPESWDTVPPHQPSRELL
4. MENRYSVHPEQVKRFTTEELRSHFLMDSLFTENKLTMYYSHEDRVVIGGAAPGQSELKLDAGDFLKTDFFLERREIGIINVGQPGAVRVGDDEYVLQTKDFLYIGMGNQDVSFSSLNGEKAKFYFVSACAHKSYPTQKAALSELTPDRLGDDAASNVRSLYKVIHQDGIKSCQLMMGITMLDQNNNWNTMPAHVHDRRMEAYLYLDLEKDSKVFHFMGQPDETRHLVVGNEQAVLSPAWSIHSGAGTSNYSFVWAMAGENYTFTDMDLIPMDGLK
5. AGPGAEEEQLDTAEIAFQVKEQLLKHNIGQRVFGHYVLGLSQGSVSEILARPKPWRKLTVKGKEPFIKMKQFLSDEQNVLALRTIQVR

["not soluble", "soluble", "soluble", "not soluble", "soluble"]
